The reported numbers originate from PubChem BioAssay.

system: Concanavalin-A (Canavalia ensiformis)
test: compounds binding concanavalin A lectin – biochemical, small-molecule microarray, Alexa647 label, 635 nm, artefact control for SMM control protein annotation, primary screen (AID 1127);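 further: z combines 667 nm emission intensity with signal-to-noise across three replicate slides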
runConditions: ConA-A647 binding fluorescence, higher = more signal
Lab note: anything with composite z-score at or over 1 counts as yes (1); the rest go in no (0).

[[record]]
molecule = "COCCOC(=O)N1C(=O)[C@@]2(c3cc(C#CCNC(N)=O)ccc31)[C@H](C(=O)Nc1nc3ccccc3s1)[C@H]1C(=O)O[C@H](c3ccccc3)[C@H](c3ccccc3)N1[C@@H]2c1ccccc1OCCO"
category = "yes (1)"

[[record]]
molecule = "COCCOC(=O)N1C(=O)[C@@]2(c3cc(C#CCC(C(=O)OC)C(=O)OC)ccc31)[C@H](C(N)=O)[C@H]1C(=O)O[C@H](c3ccccc3)[C@H](c3ccccc3)N1[C@@H]2c1ccc(O)cc1"
category = "no (0)"

[[record]]
molecule = "[N-]=[N+]=Nc1ccccc1[C@H]1OC(c2ccc(OCCCO)cc2)=N[C@@]1(Cc1ccccc1)C(=O)NCC(O)CO (stereo partly specified)"
category = "no (0)"

[[record]]
molecule = "CC=CC(O)C1C=CC2C(=O)NC(=O)C2N1Nc1ccc(Cl)cc1Cl (stereo unspecified)"
category = "no (0)"

[[record]]
molecule = "COCCOC(=O)N1C(=O)[C@@]2(c3cc(C#CCCO)ccc31)[C@H](c1ccccc1OCCO)N1[C@H](c3ccccc3)[C@H](c3ccccc3)OC(=O)[C@H]1[C@@H]2C(N)=O"
category = "yes (1)"

[[record]]
molecule = "CC1CC/C=C\\[C@H]2OC34C=CCN(c5ccc6ccccc6c5)C(=O)[C@H]3N(C(C)CO)C(=O)[C@@H]4C2C(=O)O1 (stereo partly specified)"
category = "no (0)"

